Value source: patent US10316017B2

# Experimental target: human Cot catalytic domain (30-397 amino acids) (Homo sapiens)
# Construct: Purified recombinant human Cot catalytic domain (30-397 amino acids) was purchased from Cama Biosciences; purchased Cama Biosciences (so in the source)
# Experimental details: High Throughput Cot Biochemical Assay (KinEASE TR-FRET)
# Applied conditions: Cot KinEASE TR-FRET (HTRF) biochemical assay, 400 μM ATP; read-out: IC50 HTRF
pIC50: −log10 of the molar value.
Property measured: pIC50

(a) [2H][C@@](Nc1cc(Cl)c2ncc(C#N)c(N[C@H](CC)c3ccccc3)c2c1)(c1cn(C2CC2)nn1)c1cccc(C#N)c1Cl
(b) [2H]C(Nc1cc(Cl)c2ncc(C#N)c(NC(CS(C)(=O)=O)c3ccccc3)c2c1)(c1ccc(F)cc1)c1cn(C2CC2)nn1 (stereo not drawn)
Inquiry: In terms of reported pIC50, does a or b have the smaller number? Give the label under which the chosen entry appears.
Reply text: b

----------
# Experimental target: human Cot catalytic domain (30-397 amino acids) (Homo sapiens, UniProt P41279)
# Construct: Purified recombinant human Cot catalytic domain (30-397 amino acids) was purchased from Cama Biosciences; purchased Cama Biosciences (so in the source)
# Sequence (P41279 30-397): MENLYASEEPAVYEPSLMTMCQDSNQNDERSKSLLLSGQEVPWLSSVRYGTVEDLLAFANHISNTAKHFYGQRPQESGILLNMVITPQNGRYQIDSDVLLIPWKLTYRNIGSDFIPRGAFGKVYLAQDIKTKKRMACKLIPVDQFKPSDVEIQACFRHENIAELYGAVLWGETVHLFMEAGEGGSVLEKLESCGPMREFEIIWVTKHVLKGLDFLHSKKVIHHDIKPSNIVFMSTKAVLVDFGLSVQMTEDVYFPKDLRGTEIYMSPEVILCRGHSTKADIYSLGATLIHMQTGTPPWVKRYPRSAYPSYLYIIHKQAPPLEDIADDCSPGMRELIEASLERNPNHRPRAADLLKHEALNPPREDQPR
# Experimental details: High Throughput Cot Biochemical Assay (KinEASE TR-FRET)
# Applied conditions: Cot KinEASE TR-FRET (HTRF) biochemical assay, 400 μM ATP; read-out: IC50 HTRF
pIC50: −log10 of the molar value.
Property measured: pIC50

N#Cc1cnc2c(Cl)cc(N[C@@H](c3ccc(F)cc3)c3cn(-c4ccccc4F)nn3)cc2c1Nc1cnc(F)c(F)c1 = 7.31
[2H][C@@](Nc1cc(Cl)c2ncc(C#N)c(Nc3cnc(F)c(F)c3)c2c1)(c1cn(C2CC2)nn1)c1ccccc1Cl = 7.92
[2H][C@](Nc1cc(Cl)c2ncc(C#N)c(NC3CC(C)(C)C3)c2c1)(c1ccc(F)cc1)c1cn(C2CC2)nn1 = 7.42

(P) [2H][C@](Nc1cc(C2CC2)c2ncc(C#N)c(NCC(C)(C)C)c2c1)(c1ccc(F)cc1)c1cn(C2CC2)nn1
(Q) [2H][C@](Nc1cc(Cl)c2ncc(C#N)c(NCC(C)(C)C)c2c1)(c1cn(CC2CCO2)nn1)c1ccccc1Cl (some centres unmarked)
(R) [2H][C@](Nc1cc(Cl)c2ncc(C#N)c(Nc3cnc(F)c(F)c3)c2c1)(c1cccc(C#N)c1)c1cn(C2CC2)nn1
Inquiry: hey, can you rank those molecules up there by pIC50? biggest number first please Response field: labels, in requested order.
Reply text: R, Q, P

----------
# Experimental target: human Cot catalytic domain (30-397 amino acids) (Homo sapiens)
# Construct: Purified recombinant human Cot catalytic domain (30-397 amino acids) was purchased from Cama Biosciences; purchased Cama Biosciences (so in the source)
# Experimental details: High Throughput Cot Biochemical Assay (KinEASE TR-FRET)
# Applied conditions: Cot KinEASE TR-FRET, 400 μM ATP; read-out: IC50 HTRF
pIC50: −log10 of the molar value.
Property measured: pIC50

N#Cc1cnc2c(Cl)cc(NC(c3ccc(F)cc3)c3cn(C4CCNCC4)nn3)cc2c1Nc1ccc(F)c(Cl)c1 (stereo not shown) = 7.96
CC(C)(C)CNc1c(C#N)cnc2c(C#N)cc(N[C@H](c3cn(C4(C(N)=O)CCOCC4)nn3)c3ccccc3Cl)cc12 = 7.68
CCN1CCC(n2cc(C(Nc3cc(Cl)c4ncc(C#N)c(Nc5ccc(F)c(Cl)c5)c4c3)c3ccccc3)nn2)CC1 (stereo not shown) = 8.40
CC(C)(C)CNc1c(C#N)cnc2c(F)cc(N[C@H](c3cn(C4(C(F)(F)F)CC4)nn3)c3ccccc3Cl)cc12 = 7.07
CCN1CC[C@@H](n2cc(C(Nc3cc(Cl)c4ncc(C#N)c(Nc5ccc(F)c(Cl)c5)c4c3)c3ccc(F)cc3)nn2)C1 (stereo partly shown) = 7.34

(A) N#Cc1cnc2c(Cl)cc(NC(c3ccc(Cl)c(Cl)c3)c3cn(C4CCNCC4)nn3)cc2c1Nc1ccc(F)c(Cl)c1 (stereo not shown)
(B) CC(C)(C)N1CCC(n2cc([C@@H](Nc3cc(Cl)c4ncc(C#N)c(Nc5cccc(C(F)(F)F)c5)c4c3)c3ccc(Cl)cc3)nn2)CC1
(C) Cc1c([C@H](Nc2cc(Cl)c3ncc(C#N)c(NCC(C)(C)C)c3c2)c2cn(C3(C(F)F)CC3)nn2)cccc1-n1ccnc1
(D) CCN1CCC(n2cc([C@H](Nc3cc(Cl)c4ncc(C#N)c(Nc5ccc(F)c(Cl)c5)c4c3)c3ccccc3)nn2)CC1
(E) CC(C)(C)CNc1c(C#N)cnc2c(Cl)cc(N[C@@H](c3ccc(C#N)cc3)c3cn(C4CC4)nn3)cc12
Inquiry: hey, can you rank those compounds up there by pIC50? biggest number first please Response field: labels, in requested order.
Reply text: C, E, A, D, B

(A) CC1(C)C[C@H](n2cc([C@H](Nc3cc(Cl)c4ncc(C#N)c(Nc5ccc(F)c(Cl)c5)c4c3)c3ccccc3)nn2)CCN1 [Example 789]
(B) N#Cc1cnc2c(Cl)cc(N[C@@H](c3ccc(F)cc3)c3cn(C4CCN(C5COC5)CC4)nn3)cc2c1Nc1ccc(F)c(Cl)c1
Inquiry: Short answer wanted: higher pIC50, A or B ? Give the label under which the chosen entry appears.
Reply text: B
